Listed here: items and their measured pKd.
Target entity: T1, death receptor 6 (DR6) protein (UniProt O75509 42-349, labelled with RED-tris-NTA second-generation dye)
T1 construct: death receptor 6 (DR6), bought recombinant protein; It is probably a soluble extracellular construct, but that is a surmise; source: bought: Sino Biology
T1 sequence (looked up): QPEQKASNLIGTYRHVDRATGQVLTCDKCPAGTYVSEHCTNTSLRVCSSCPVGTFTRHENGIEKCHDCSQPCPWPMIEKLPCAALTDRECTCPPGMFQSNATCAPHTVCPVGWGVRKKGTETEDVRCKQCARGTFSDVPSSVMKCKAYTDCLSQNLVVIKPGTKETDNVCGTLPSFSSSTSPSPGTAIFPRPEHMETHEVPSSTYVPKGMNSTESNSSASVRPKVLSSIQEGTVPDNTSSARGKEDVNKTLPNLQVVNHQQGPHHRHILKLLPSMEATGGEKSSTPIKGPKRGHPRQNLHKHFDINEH
Procedure details: MST; DR6 protein labelled with RED-tris-NTA second-generation dye, final 50 × 10^-9 M; peptides prepared at 20 × 10^-6 M and diluted serially 1:1 over 12 tubes in PBS-T; NanoTemper Monolith NT.015
Run parameters: both partners purified
pKd: −log10 of the molar value. Square brackets hold non-standard residues; d marks the D form. Side chains are listed from the residue outwards. Ends that are not written are not given here. maleimide = maleimide: 4-arm PEG5k maleimide reacting with the C-terminal Cys thiol
Measured attribute: pKd

>>> quantitative_result("TIDATTP (heptapeptide selected from a random heptapeptide M13 phage display library against DR6; also called AHP-12 (TIDATTP); source: synthetic peptide (SPPS, HPLC purified)) [AHP‐12]")
6.49
>>> quantitative_result("[dP][dT][dT][dA][dD][dI][dT]C([maleimide-4‑arm PEG5k]) (other, also: four peptides on one 4-arm PEG5k, additional Cys residue at the C-terminal, coupled to the maleimide of the PEG arm; Four peptide chains on one 4-arm PEG5k, not a polypeptide oligomer; also called PEG‐tAHP‐12; PEGylated tetrameric AHP‐DRI‐12; source: synthetic peptide conjugated to 4-arm PEG5k maleimide, dialysed) [PEG‐tAHP‐DRI (tetra‐(D‐retro‐inverso isomer of AHP‐12) substitued 4‐arm PEG5k)]")
7.29
>>> quantitative_result("[dP][dT][dT][dA][dD][dI][dT] (Peptidomimetic made of D-amino acids; source: synthetic peptide (SPPS, HPLC purified)) [AHP‐DRI‐12 (D‐retro‐inverso isomer of AHP‐12)]")
6.65

Taken from paper PMC8188212.
